This collection of values is drawn from patent US20080170993A1.

Provide the recorded In vitro-Phosphorylation for the entries that follow.
- system tested: recombinant thymidine kinase 1 (TK-1) (Homo sapiens, UniProt P04183)
- reported conditions: cold 19F analogues; 100 μM ATP+P-32-ATP, 10-60 ng thymidine kinase; TLC, phosphoimager; thymidine 100%

In the examples that follow, each entry is paired with its recorded In vitro-Phosphorylation.
[
  {
    "compound": "N#Cc1cc(C(=O)NCCCCCCn2c(=O)c(C(F)(F)F)cn([C@H]3C[C@H](O)[C@@H](CO)O3)c2=O)ccc1F",
    "system tested": "recombinant thymidine kinase 1 (TK-1) (Homo sapiens, UniProt P04183)",
    "In vitro-Phosphorylation": "49% ± 9.9%"
  },
  {
    "compound": "Cc1cn([C@H]2C[C@H](O)[C@@H](CO)O2)c(=O)n(CCNC(=O)CNC(=O)C(CF)NS(=O)(=O)c2c(C(C)C)cc(C(C)C)cc2C(C)C)c1=O (stereo partly shown)",
    "system tested": "recombinant thymidine kinase 1 (TK-1) (Homo sapiens, UniProt P04183)",
    "In vitro-Phosphorylation": "19% ± 3.7%"
  },
  {
    "compound": "Cc1cn([C@H]2C[C@H](F)[C@@H](CO)O2)c(=O)[nH]c1=O [FLT, 3′-[F-18]fluoro-3′-deoxythymidine, reference compound]",
    "system tested": "recombinant thymidine kinase 1 (TK-1) (Homo sapiens, UniProt P04183)",
    "In vitro-Phosphorylation": "58% ± 11.9%"
  },
  {
    "compound": "Cc1cn([C@H]2C[C@H](O)[C@@H](CO)O2)c(=O)n(CCCCF)c1=O",
    "system tested": "recombinant thymidine kinase 1 (TK-1) (Homo sapiens, UniProt P04183)",
    "In vitro-Phosphorylation": "13% ± 5.4%"
  },
  {
    "compound": "Cc1cn([C@H]2C[C@H](O)[C@@H](CO)S2)c(=O)n(CCCCCCF)c1=O",
    "system tested": "recombinant thymidine kinase 1 (TK-1) (Homo sapiens, UniProt P04183)",
    "In vitro-Phosphorylation": "26% ± 4.0%"
  }
]

Fill in In vitro-Phosphorylation for each of the 5 compounds listed.
1. Cc1cn([C@H]2C[C@H](O)[C@@H](CO)O2)c(=O)n(CCCCCCNC(=O)c2ccc(F)c(C#N)c2)c1=O
2. Cc1cn([C@H]2C[C@H](O)[C@@H](CO)O2)c(=O)n(CCCCN(C)C(=O)c2ccc(F)c(C#N)c2)c1=O
3. Cc1cn([C@H]2C[C@H](O)[C@@H](CO)O2)c(=O)n(CCCCNC(=O)c2ccc(F)c(C#N)c2)c1=O
4. Cc1cn([C@H]2C[C@H](O)[C@@H](CO)O2)c(=O)n(CCCCCCF)c1=O
5. Cc1cn([C@H]2C[C@H](O)[C@@H](CO)O2)c(=O)n(CC#CCF)c1=O

1: 41% ± 9.5%; 2: 12% ± 2.8%; 3: 21% ± 4.6%; 4: 30% ± 3.7%; 5: 23% ± 8.0%

* * *

Please provide measured In vitro-Phosphorylation for the entries that follow.
- system tested: recombinant thymidine kinase 1 (TK-1) (Homo sapiens)
- Sequence (P04183 1-234): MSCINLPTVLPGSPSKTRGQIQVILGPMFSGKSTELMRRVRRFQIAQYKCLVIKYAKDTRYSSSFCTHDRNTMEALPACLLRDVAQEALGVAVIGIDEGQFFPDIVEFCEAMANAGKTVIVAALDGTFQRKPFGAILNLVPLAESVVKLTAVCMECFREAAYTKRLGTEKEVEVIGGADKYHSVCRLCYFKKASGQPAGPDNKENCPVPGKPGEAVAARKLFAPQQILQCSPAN
- reported conditions: cold 19F analogues; 100 μM ATP+P-32-ATP, 10-60 ng thymidine kinase; TLC, phosphoimager; thymidine 100%

Worked examples follow.
[
  {
    "compound": "Cc1cn([C@H]2C[C@H](O)[C@@H](CO)O2)c(=O)n(CCCCCCCNC(=O)c2ccc(F)c(C#N)c2)c1=O",
    "In vitro-Phosphorylation": "36% ± 6.5%"
  },
  {
    "compound": "Cc1cn([C@H]2C[C@H](O)[C@@H](CO)O2)c(=O)n(CCCCCCNC(=O)CNC(=O)C(CF)NS(=O)(=O)c2c(C(C)C)cc(C(C)C)cc2C(C)C)c1=O (stereo partly shown)",
    "In vitro-Phosphorylation": "17% ± 10.2%"
  },
  {
    "compound": "Cc1cn([C@H]2C[C@H](O)[C@@H](CO)O2)c(=O)n(Cc2ccc(F)cc2)c1=O",
    "In vitro-Phosphorylation": "34% ± 18.6%"
  },
  {
    "compound": "Cc1cn([C@H]2C[C@H](O)[C@@H](CO)O2)c(=O)n(CCCNC(=O)c2ccc(F)c(C(F)(F)F)c2)c1=O",
    "In vitro-Phosphorylation": "12% ± 1.1%"
  },
  {
    "compound": "Cc1cn([C@H]2C[C@H](O)[C@@H](CO)S2)c(=O)[nH]c1=O",
    "In vitro-Phosphorylation": "70% ± 9.3%"
  },
  {
    "compound": "Cc1cn([C@H]2C[C@H](O)[C@@H](CO)O2)c(=O)n(CCCNC(=O)Cc2ccc([Si](F)(C(C)C)C(C)C)cc2)c1=O",
    "In vitro-Phosphorylation": "17% ± 1.5%"
  }
]

Return reported In vitro-Phosphorylation; argument: Cc1cn([C@H]2C[C@H](O)[C@@H](CO)O2)c(=O)n(CCCNC(=O)CCc2cccc([Si](F)(C(C)C)C(C)C)c2)c1=O
15% ± 6.1%
